assay-notes: Selectivity index, ratio of IC50 for rat L6 cells to IC50 for erythrocytic stage of Plasmodium falciparum NF54
Type: toxicity
settings: read-out: Ratio IC50
// values below are reported selectivity ratio
The reply should be a number, written without any unit.

COc1cc(NC(C)CCCNC(=O)NNC(=O)Nc2ccc(Cl)cc2)c2ncccc2c1 (stereo not given) | 5.2

Looking up COc1cc(NC(C)CCCNC(=O)Nc2cc(C(F)(F)F)cc(C(F)(F)F)c2)c2ncccc2c1 (stereo not given) , I see its selectivity ratio listed as 1.3

* * *

Each record here notes measured IC50.
Tested on: L6
assay-notes: Cytotoxicity against rat L6 cells assessed as reduction in cell viability after 70 hrs by Alamar blue assay
Type: cell-based
settings: L6, 70 h
API: value field is a number in µM; no unit string.

COc1cc(NC(C)CCCNC(=O)NNC(=O)/C(C)=C/c2ccccc2)c2ncccc2c1 (stereo unspecified) | 36.5
COc1cc(NC(C)CCCNC(=O)NNC(=O)/C=C/c2ccc(C(F)(F)F)cc2)c2ncccc2c1 (stereo unspecified) | 28.3
COc1cc(NC(C)CCCNC(=O)NNC(=O)Nc2ccc(Br)cc2)c2ncccc2c1 (stereo unspecified) | 38.7
COc1ccc(/C(=N/NC(=O)NNC(=O)NCCCC(C)Nc2cc(OC)cc3cccnc23)c2ccccc2)cc1 (stereo unspecified) | 16
COc1cc(NC(C)CCCN)c2ncccc2c1 (stereo unspecified) [PRIMAQUINE PHOSPHATE] | 59.5
COc1cc(NC(C)CCCNC(=O)/C=C/c2ccc(C(F)(F)F)cc2)c2ncccc2c1 (stereo unspecified) | 160

Lookup result for COc1cc(NC(C)CCCNC(=O)NNC(=O)N(C)C(c2ccccc2)c2ccccc2)c2ncccc2c1 (stereo unspecified) ; measured IC50: 10.4

Reported IC50 for COc1cc(NC(C)CCCNC(=O)Nc2cc(C(F)(F)F)cc(C(F)(F)F)c2)c2ncccc2c1 (stereo unspecified) was 14.9
